# tested-on: L-type calcium channel (LTCC) (Rattus norvegicus)
# Construct: The 6.5 kb cDNA encoding the L-type calcium channel α1c subunit was cloned by PCR amplification from rat heart cDNA
# Sequence (P22002 whole entry): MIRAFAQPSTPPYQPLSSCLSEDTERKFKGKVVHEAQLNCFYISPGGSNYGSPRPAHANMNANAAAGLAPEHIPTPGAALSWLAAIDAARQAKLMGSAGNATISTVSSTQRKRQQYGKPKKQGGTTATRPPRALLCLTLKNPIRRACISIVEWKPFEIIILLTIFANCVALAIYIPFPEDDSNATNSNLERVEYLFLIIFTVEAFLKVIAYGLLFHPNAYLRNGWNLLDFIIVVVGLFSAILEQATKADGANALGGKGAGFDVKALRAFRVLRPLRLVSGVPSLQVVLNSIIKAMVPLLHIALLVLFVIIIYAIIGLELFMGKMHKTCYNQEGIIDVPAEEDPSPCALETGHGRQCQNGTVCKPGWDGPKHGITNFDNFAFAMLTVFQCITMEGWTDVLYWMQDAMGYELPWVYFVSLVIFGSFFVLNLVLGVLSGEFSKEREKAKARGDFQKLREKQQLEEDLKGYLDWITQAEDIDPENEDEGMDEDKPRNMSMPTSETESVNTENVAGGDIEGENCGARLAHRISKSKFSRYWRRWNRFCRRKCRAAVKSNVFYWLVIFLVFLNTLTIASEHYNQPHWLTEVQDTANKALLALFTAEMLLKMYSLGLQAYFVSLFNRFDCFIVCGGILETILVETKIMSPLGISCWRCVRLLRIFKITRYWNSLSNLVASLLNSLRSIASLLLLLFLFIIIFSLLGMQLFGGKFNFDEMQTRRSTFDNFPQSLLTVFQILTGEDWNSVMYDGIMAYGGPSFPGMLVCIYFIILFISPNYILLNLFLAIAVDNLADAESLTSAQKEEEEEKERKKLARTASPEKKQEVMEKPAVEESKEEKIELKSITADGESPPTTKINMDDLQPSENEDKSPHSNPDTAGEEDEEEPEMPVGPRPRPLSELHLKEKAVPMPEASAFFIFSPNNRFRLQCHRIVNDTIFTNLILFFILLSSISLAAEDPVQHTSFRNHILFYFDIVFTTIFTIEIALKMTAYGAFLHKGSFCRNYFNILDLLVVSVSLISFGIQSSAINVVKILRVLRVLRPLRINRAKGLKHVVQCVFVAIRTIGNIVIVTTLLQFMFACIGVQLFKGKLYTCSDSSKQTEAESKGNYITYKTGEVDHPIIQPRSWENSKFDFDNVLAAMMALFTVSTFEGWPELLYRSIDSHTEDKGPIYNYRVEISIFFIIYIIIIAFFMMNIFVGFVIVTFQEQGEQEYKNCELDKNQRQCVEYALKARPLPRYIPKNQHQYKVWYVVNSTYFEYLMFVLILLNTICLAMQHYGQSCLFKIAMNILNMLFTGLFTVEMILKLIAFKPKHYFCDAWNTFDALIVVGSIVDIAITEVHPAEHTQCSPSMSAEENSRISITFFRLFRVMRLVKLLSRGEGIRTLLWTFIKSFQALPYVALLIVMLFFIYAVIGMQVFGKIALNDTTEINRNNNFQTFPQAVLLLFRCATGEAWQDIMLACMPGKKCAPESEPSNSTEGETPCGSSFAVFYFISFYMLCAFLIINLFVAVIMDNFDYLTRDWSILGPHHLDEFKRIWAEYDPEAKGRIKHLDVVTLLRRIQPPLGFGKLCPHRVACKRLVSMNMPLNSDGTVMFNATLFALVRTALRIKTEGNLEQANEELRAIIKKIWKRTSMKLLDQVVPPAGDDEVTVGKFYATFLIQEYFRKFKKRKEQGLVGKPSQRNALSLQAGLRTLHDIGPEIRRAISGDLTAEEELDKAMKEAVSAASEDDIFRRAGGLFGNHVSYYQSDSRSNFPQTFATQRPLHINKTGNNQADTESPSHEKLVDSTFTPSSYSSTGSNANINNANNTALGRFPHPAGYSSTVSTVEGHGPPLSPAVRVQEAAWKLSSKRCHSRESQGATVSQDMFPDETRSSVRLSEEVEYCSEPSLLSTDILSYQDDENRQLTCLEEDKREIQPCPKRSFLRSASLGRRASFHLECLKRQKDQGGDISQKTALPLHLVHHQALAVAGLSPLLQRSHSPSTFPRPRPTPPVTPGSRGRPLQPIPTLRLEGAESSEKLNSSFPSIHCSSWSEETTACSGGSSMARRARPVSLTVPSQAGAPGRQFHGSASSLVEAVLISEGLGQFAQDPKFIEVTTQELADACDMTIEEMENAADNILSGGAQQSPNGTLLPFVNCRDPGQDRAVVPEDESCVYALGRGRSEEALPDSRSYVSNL
# measurement-notes: FLIPR calcium mobilization assay for L-type calcium channel
# measurement-conditions: calcium mobilization in vitro assay; HEK293 cells expressing recombinant rat LTCC subunits (α1c, α2δ, β1), 90 mM KCl
pIC50: −log10 of the molar value.
The reader will find reported pIC50 values listed item by item below.

# example entries with known answers
molecule	pIC50
N#Cc1cccc(C(=NOC2CCN(S(=O)(=O)c3ccc(OC(F)(F)F)cc3)CC2)C2CC2)c1 (racemic)	< 4.70
C/C(=N\OC1CCN(S(=O)(=O)c2ccc(OC(F)(F)F)cc2)CC1)c1cccc(C#N)c1	< 4.70

// query What value of pIC50 has been reported for the following molecule? O=S(=O)(c1ccc(OC(F)(F)F)cc1)N1CCC(ON=C(c2ccc(F)cc2)c2ccc(F)cc2)CC1
// result < 4.70
